study-system: Env of HIV-1 strain REJO4541.67 (HIV-1)
assay-text: cell-based or functional assay
Each item that follows carries a reported neutralization IC50.
test-readout: neutralization IC50 (µg/mL)

[[record]]
binder = "γ20κ18 (antibody, V domains shown) VH: QIHLVQSGTEVKKPGSSVAVSCKAYGVNTFGLYAVNWVRQAPGQSLEYIGQIWRWKSSASHDFRGRVIISAVDLTGSSPPISSLEIKNLTSDDTAVYFCTATSTPDYWSGLHHDGVMAFSSWGQGTLISVSA VL: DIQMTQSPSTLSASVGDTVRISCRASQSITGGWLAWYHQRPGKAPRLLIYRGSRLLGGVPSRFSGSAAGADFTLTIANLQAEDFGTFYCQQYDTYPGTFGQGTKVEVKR"
reading_unit = "µg/mL"
lt_gt_eq = ">"
value_measured = 15

[[record]]
binder = "γ3κ18 (antibody, V domains shown) VH: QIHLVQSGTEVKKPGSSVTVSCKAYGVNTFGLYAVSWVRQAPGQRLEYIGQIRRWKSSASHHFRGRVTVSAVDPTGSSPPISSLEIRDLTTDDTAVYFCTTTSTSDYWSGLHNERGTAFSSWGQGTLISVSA VL: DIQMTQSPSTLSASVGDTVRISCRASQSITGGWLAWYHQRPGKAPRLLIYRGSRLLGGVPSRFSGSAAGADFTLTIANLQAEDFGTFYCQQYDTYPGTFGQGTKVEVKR"
reading_unit = "µg/mL"
lt_gt_eq = "="
value_measured = 0.049

[[record]]
binder = "γ59κ5 (antibody, V domains shown) VH: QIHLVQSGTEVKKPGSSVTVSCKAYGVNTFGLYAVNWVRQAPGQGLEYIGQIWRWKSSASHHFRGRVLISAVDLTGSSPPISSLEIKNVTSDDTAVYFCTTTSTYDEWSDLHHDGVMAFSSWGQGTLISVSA VL: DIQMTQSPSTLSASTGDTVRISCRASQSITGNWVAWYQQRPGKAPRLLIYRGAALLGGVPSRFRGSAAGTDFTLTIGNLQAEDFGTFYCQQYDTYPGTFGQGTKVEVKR"
reading_unit = "µg/mL"
lt_gt_eq = "="
value_measured = 4.67

[[record]]
binder = "8ANC3630 (antibody, V domains shown) VH: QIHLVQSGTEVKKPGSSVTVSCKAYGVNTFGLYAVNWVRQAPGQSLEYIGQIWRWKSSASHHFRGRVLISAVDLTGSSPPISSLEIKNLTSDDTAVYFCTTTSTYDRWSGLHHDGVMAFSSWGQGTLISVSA VL: DIQMTQSPSTLSASIGDTVRISCRASQSITGGWLAWYHQRPGKAPRLLIYRGSRLLGGVPSRFSGSAAGTDFTLTIANLQAEDFGTFYCQQYDTYPGTFGQGTKVEVKR"
reading_unit = "µg/mL"
lt_gt_eq = "="
value_measured = 2.65

[[record]]
binder = "γ22κ18 (antibody, V domains shown) VH: QIHLVQSGTEVKKPGSSVTVSCKAYGVNTFGLYAVNWVRQAPGQSLEYIGQIWRWKSSASHHFRGRVLISAVDLTGPSPPISSLEIKNLTSDDTAVYFCTTTSTYDKWSGLHHDGVMAFSSWGQGTLISVSA VL: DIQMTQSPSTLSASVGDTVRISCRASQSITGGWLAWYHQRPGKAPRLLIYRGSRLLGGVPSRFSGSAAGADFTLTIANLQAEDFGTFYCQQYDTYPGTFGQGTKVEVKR"
reading_unit = "µg/mL"
lt_gt_eq = ">"
value_measured = 15

